# Target: Bcl-xL, Q07817
# Sequence (Q07817 1-209): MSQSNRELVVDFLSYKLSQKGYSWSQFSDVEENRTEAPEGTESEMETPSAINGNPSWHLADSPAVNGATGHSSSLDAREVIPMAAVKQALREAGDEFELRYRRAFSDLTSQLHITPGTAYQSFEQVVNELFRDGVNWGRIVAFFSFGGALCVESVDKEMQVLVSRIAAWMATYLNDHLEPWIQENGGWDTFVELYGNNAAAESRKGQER
# Protocol: peptide SPOT array, c-Myc-tagged receptor at 1 uM or 100 nM, anti-c-Myc-Cy3
Label Met for high-side SPOT signal as a fraction of Bim BH3's signal on the same receptor and array (at or above 0.3) and Not met for low-side SPOT signal as a fraction of Bim BH3's signal on the same receptor and array (below it).

{"Binder": "SVRYYPSGDAFASGLDDATCRLYDLR [GNB5]", "Class": "Not met"}
{"Binder": "LRGSGAWGLLLRRVGDDVLVHLLARC [TERT]", "Class": "Met"}
{"Binder": "GFANHDVVEVDRNAGQVVHLTLVRRK [INADL]", "Class": "Not met"}
{"Binder": "TAAAAYRGAHLRGRLRTVYNTFRAAA [XXXX]", "Class": "Met"}
{"Binder": "MQTLSELAKSFQDMLDRCLLVLHLEV [EXOC4]", "Class": "Not met"}
{"Binder": "DTIFHRAAVRDRDLGGAILRHARRQA [BRPF3]", "Class": "Met"}
{"Binder": "VDSIRPKCQELRHLCDQFSAEIARRR [MCF2L]", "Class": "Met"}
{"Binder": "FDHMVPLVEEINRLADELNPLNASQE [C7orf26]", "Class": "Not met"}
